Cited source for all entries: patent US7696383B2

- assay.target: [3H]-dopamine reuptake (Rattus norvegicus)
- Construct: the striatum was rapidly removed and a crude synaptosomal fraction (P2) was prepared; from tissue; host or cells: rat striatum, crude P2 synaptosomal fraction
- Sequence (P23977 whole entry): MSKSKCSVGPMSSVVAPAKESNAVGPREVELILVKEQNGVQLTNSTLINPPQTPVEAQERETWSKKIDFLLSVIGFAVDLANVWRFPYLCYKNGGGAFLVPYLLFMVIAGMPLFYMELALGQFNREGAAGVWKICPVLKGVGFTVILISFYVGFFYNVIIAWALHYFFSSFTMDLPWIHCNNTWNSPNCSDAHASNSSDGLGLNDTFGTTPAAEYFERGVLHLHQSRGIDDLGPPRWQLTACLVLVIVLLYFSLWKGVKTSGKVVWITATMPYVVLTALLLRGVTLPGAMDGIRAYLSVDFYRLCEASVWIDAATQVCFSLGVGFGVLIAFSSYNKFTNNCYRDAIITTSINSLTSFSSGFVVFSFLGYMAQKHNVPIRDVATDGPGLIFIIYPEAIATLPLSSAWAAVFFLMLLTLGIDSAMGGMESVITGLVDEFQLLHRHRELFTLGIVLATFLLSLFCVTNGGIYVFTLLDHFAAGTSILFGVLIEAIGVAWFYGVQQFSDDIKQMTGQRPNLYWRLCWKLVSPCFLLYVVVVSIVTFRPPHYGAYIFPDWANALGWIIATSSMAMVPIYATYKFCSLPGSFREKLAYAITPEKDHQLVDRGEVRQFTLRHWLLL
- measurement.notes: In vitro functional inhibition of [3H]-dopamine reuptake, striatum synaptosomes
- Format: biochemical
- measurement.context: read-out: Dopamine inhibition pIC50 (converted)
parameter.measured: IC50

{"columns": ["compound", "assay.target", "observed.measurement"],
 "data": [
  ["COc1ccc([C@@H](C[N+](C)(C)[O-])C2(O)CCCCC2)cc1 [(S)-venlafaxine-N-oxide, S-Venlafaxine N-oxide]", "[3H]-dopamine reuptake (Rattus norvegicus)", "> 31.6 µM"],
  ["C[N+](C)([O-])C[C@@H](c1ccc(O)cc1)C1(O)CCCCC1 [(R)—O-desmethyl-venlafaxine-N-oxide, O-Desmethyl-R-venlafaxine N-oxide]", "[3H]-dopamine reuptake (Rattus norvegicus)", "> 31.6 µM"],
  ["COc1ccc([C@H](C[N+](C)(C)[O-])C2(O)CCCCC2)cc1 [(R)-venlafaxine-N-oxide, R-Venlafaxine N-oxide]", "[3H]-dopamine reuptake (Rattus norvegicus)", "> 31.6 µM"],
  ["CN(C)C[C@@H](c1ccc(O)cc1)C1(O)CCCCC1 [(R)—O-desmethyl-venlafaxine, O-desmethyl-R-Venlafaxine, reference compound]", "[3H]-dopamine reuptake (Rattus norvegicus)", "5.01 µM"],
  ["C[N+](C)([O-])C[C@H](c1ccc(O)cc1)C1(O)CCCCC1 [(S)—O-desmethyl-venlafaxine-N-oxide, O-desmethyl-S-venlafaxine N-oxide]", "[3H]-dopamine reuptake (Rattus norvegicus)", "> 31.6 µM"],
  ["CN(C)C[C@H](c1ccc(O)cc1)C1(O)CCCCC1 [(S)—O-desmethyl-venlafaxine, O-desmethyl-S-Venlafaxine, reference compound]", "[3H]-dopamine reuptake (Rattus norvegicus)", "10 µM"]
]}
